Experiment: LD50 determination, tail vein injection
Type: in vivo, mice
Conditions: both sexes, KunMing (KM), mouse, in vivo, intravenous, KM mice, tail vein injection; read-out: LD50 (Feiller correction) 95% confidence interval
Protocol: 1. Experimental animal: KunMing (KM) mice, provided by Shanghai Slac Laboratory Animal Co., Ltd., half and half of female and male, 6 groups, ten in each group, marked by bitter acid. 2. […] Preparing medical solution of equal ratio: dissolving with 0.9% NaCl to prepare the medical solution with the concentration of 336 mg/7 ml, 316.96 mg/7 ml, 299.32 mg/7 ml, 282.52 mg/7 ml, 266.84 mg/7 ml, 252 mg/7 ml. 3. Dosage for administration: with 0.5 ml/20 g bottom up. 4. […]
PROPERTY: LD50 at 14 days

>>> meas_value("COc1ccc(CCc2cc(OC)c(OC)c(OC)c2)cc1OS(=O)(=O)[O-].[Na+]")
"1030 to 1130 mg/kg"
